# System Under Test: HLA-A*2401 (purified HLA class I molecule) (human)
# Test: competition with 125I-labelled probe peptide for purified HLA, gel filtration
# Condition Notes: scale: ratio
So basically: relative binding ratio at 0.0009 or higher? That is Satisfied. Lower than 0.0009? That is Not satisfied.

WMALESIL [HER2/neu peptide, position 888, 8 amino acids] = Not satisfied

Qu. Does the binder VYMIMVKCW [HER2/neu peptide, position 951, 9 amino acids] have recorded relative binding ratio that is 0.0009 or more?
Ans. Satisfied

Qu. Does the binder VYMIMVKCWMI [HER2/neu peptide, position 951, 11 amino acids] have recorded relative binding ratio that is 0.0009 or more?
Ans. Satisfied

Qu. Does the binder WMIDSECRPRF [HER2/neu peptide, position 959, 11 amino acids] have recorded relative binding ratio that is 0.0009 or more?
Ans. Satisfied
